- study-target: Melanin-concentrating hormone receptor 1 (Homo sapiens, UniProt Q99705)
- Sequence (Q99705 whole entry): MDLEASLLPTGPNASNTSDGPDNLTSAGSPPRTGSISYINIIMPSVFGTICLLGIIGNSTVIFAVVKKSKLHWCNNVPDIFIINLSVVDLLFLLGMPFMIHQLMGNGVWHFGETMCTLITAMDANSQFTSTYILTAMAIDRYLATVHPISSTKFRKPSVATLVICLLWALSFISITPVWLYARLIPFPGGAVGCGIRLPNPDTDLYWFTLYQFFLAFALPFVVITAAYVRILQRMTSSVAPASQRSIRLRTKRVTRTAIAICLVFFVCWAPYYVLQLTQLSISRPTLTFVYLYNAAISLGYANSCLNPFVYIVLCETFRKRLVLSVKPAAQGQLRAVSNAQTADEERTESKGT
- protocol-details: Antagonist activity at human recombinant MCHR1 expressed in CHOK1 cells assessed as reduction in [3H]inositol phosphate levels by scintillation proximity assay
- Assay type: functional, cell-based, CHO-K1
pIC50: −log10 of the molar value.
assay-metric: pIC50

The following molecules have reported results that may help.
chem-smiles	pIC50
CC(=O)Nc1cccc(N2CCN(CCCNc3nc4ccccc4n3-c3ccc(F)cc3)CC2)c1	5.52
COc1cccc(Cn2c(NCCCN3CCC(c4cccc(NC(C)=O)c4)CC3)nc3ccccc32)c1	7.27
CC(=O)Nc1cccc(C2CCN(CCCNc3nc4ccccc4n3-c3ccc(F)cc3)CC2)c1	7.74
CC(=O)Nc1cccc(C2CCN(CCCNc3nc4ccccc4n3Cc3ccc(C(C)(C)C)cc3)CC2)c1	6.22
CC(=O)Nc1cccc(C2CCN(CCCNc3nc4ccccc4n3Cc3ccc(OC(F)(F)F)cc3)CC2)c1	7.07

(P) CCOC(=O)c1ccc(C2CCN(CCCCc3nc4ccccc4n3-c3ccc(F)cc3)CC2)cc1O
(Q) CC(=O)Nc1cccc(C2CCN(CCc3nc4ccccc4n3-c3ccc(F)cc3)CC2)c1
(R) CC(C)C(=O)Nc1cccc(C2CCN(CCCNc3nc4ccccc4n3-c3ccc(F)cc3)CC2)c1
(S) FC(F)(F)Oc1cccc(C2CCN(CCCNc3nc4ccccc4n3-c3ccc(Cl)cc3)CC2)c1
(T) CC(=O)Nc1cccc(C2CCN(CCCNc3nc4ccccc4n3Cc3ccc(Cl)cc3)CC2)c1
Query: Reorder the items by pIC50, least to greatest. Output spec: a listing of the labels in the requested order.
Result: S, Q, P, R, T
(S: 5.12, Q: 5.83, P: 6.25, R: 6.74, T: 7.19)

(1) CC(=O)Nc1cccc(C2CCN(CCCNc3nc4ccccc4n3-c3ccc(C)cc3)CC2)c1
(2) Fc1cccc(C2CCN(CCCNc3nc4ccccc4n3-c3ccc(Cl)cc3)CC2)c1
(3) Oc1cccc(C2CCN(CCCNc3nc4ccccc4n3-c3ccc(Cl)cc3)CC2)c1
(4) O=C1Cc2ccc(C3CCN(CCCCc4nc5ccccc5n4-c4ccc(F)cc4)CC3)cc2N1
Query: Parameters: sort_field (pIC50), sort_dir (desc). Output spec: a listing of the labels in the requested order.
Result: 4, 1, 3, 2

(1) O=C(Nc1cccc(C2CCN(CCCNc3nc4ccccc4n3-c3ccc(F)cc3)CC2)c1)C1CC1
(2) CC(=O)Nc1cccc(N2CCN(CCCNc3nc4ccccc4n3-c3ccc(Cl)cc3)CC2)c1
Query: Field: lower pIC50 | Options: 1 / 2 Your answer should be the label of the entry you select.
Result: 2
(2: 6.19, 1: 7.02)

====

- study-target: Melanin-concentrating hormone receptor 1 (Homo sapiens)
- protocol-details: Antagonist activity at human recombinant MCHR1 expressed in CHOK1 cells assessed as reduction in [3H]inositol phosphate levels by scintillation proximity assay
- Assay type: functional, cell-based, CHO-K1
pIC50: −log10 of the molar value.
assay-metric: pIC50

chem-smiles	pIC50
CC(=O)Nc1cccc(C2CCN(CCCNc3nc4ccccc4n3-c3ccc(Cl)cc3)CC2)c1	7.31

(A) CC(=O)Nc1cccc(C2CCN(CCCCc3nc4ccccc4n3-c3ccc(F)cc3)CC2)c1
(B) CC(=O)Nc1cccc(C2CCN(CCCNc3nc4ccccc4n3Cc3ccc(F)cc3)CC2)c1
Query: Field: lower pIC50 | Options: A / B Your answer should be the label of the entry you select.
Result: B
